- target_desc: recombinant PRL-1 (Homo sapiens)
- Construct: 6xHis (N, cleaved yes); made in house; host or cells: E. coli One Shot BL21 Star
- Sequence (Q93096 whole entry): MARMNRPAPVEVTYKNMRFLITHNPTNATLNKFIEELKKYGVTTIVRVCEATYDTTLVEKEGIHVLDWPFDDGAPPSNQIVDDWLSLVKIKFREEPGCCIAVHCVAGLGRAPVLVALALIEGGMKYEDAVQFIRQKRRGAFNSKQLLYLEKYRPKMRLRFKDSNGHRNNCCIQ
- method_summary: In vitro phosphatase assay (DiFMUP hydrolysis), PRL-1; note: test concentration or dose not given here
- Format: biochemical
- study_conditions: FDA-approved drug screen; compared to DMSO
endpoint_name: % Phosphatase Activity (compared to DMSO) PRL-1 (%)
Write the value in % as a bare number.

The examples below pair each entry with its known result.
molecule="O=c1[nH]c2ccccc2n1CCCN1CCC(n2c(=O)[nH]c3cc(Cl)ccc32)CC1 [Domperidone]" value_reported=118
molecule="COc1cc2c(Oc3ccc4[nH]c(C)cc4c3F)ncnc2cc1OCCCN1CCCC1 [Cediranib (AZD2171)]" value_reported=100
molecule="C#C[C@]1(O)CC[C@H]2[C@@H]3CCC4=CC(=O)CC[C@@H]4[C@H]3CC[C@@]21CC [Levonorgestrel]" value_reported=94

QUERY: Which value of % Phosphatase Activity (compared to DMSO) PRL-1 has been reported for Cc1oncc1C(=O)Nc1ccc(C(F)(F)F)cc1 [Leflunomide] in the records?
RESULT: 88

QUERY: // next record Oc1c(I)cc(I)c2cccnc12 [Diiodohydroxyquinoline]
RESULT: 89

QUERY: Okay, and CC(=O)Oc1cc2c(s1)CCN(C(C(=O)C1CC1)c1ccccc1F)C2 (stereo not drawn) [Prasugrel] ?
RESULT: 91
